Where do the numbers come from? From patent US11078168B2.

# target system: Indoleamine 2,3-dioxygenase (Homo sapiens, UniProt P14902)
# Construct: endogenous in cells; host or cells: SKOV-3 (ATCC HTB-77), stimulated with interferon gamma
# Sequence (P14902 whole entry): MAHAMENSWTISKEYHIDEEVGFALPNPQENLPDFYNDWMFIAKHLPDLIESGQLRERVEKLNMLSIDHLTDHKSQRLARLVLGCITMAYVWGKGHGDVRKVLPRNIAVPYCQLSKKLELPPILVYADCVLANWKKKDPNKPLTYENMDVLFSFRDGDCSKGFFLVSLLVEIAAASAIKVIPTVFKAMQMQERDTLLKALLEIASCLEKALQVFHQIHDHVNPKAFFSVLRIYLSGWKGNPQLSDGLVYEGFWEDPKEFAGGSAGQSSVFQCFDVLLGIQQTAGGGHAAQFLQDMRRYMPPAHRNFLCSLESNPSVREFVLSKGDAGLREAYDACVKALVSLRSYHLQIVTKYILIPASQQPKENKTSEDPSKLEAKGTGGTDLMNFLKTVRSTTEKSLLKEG
# experiment summary: SKOV-3 cellular Indoleamine 2,3-dioxygenase assay
# condition parameters: SKOV-3 cells, 50 ng/ml Interferon gamma, 100 μM L-Tryptophan, 24 hours, N-Formylkynurenin fluorescence detection; read-out: cell based activity
pIC50: −log10 of the molar value.
measurement label: pIC50

Query :: Param item = N#Cc1cccc(N/C(=N\O)c2nonc2SCCNC(=O)CS(N)(=O)=O)c1 ; retrieve measured pIC50.
Result :: > 7.00

Query :: Param item = O=C(NCCSc1nonc1C(=NO)Nc1ccc(F)c(C(F)F)c1)C1(O)CCC1 ; retrieve measured pIC50.
Result :: > 7.00

Query :: Param item = O=C(NCCSc1nonc1C(=NO)Nc1ccc(F)c(C(F)(F)F)c1)C1=NOC(C(O)(C(F)(F)F)C(F)(F)F)C1 (centres unmarked) ; retrieve measured pIC50.
Result :: > 7.00

----------
# target system: Indoleamine 2,3-dioxygenase (Homo sapiens, UniProt P14902)
# Construct: endogenous in cells
# experiment summary: SKOV-3 cellular Indoleamine 2,3-dioxygenase assay
# condition parameters: SKOV-3 cells, 50 ng/ml Interferon gamma, 100 μM L-Tryptophan, 24 hours, N-Formylkynurenin fluorescence detection; read-out: cell based activity
pIC50: −log10 of the molar value.
measurement label: pIC50

The following compounds have reported results that may help.
>>> df
                                   compound  measurement_label  result
0  NS(=O)(=O)CC(=O)NCCSc1nonc1C(=NO)Nc1cc(F)cc(C(F)F)c1              pIC50  > 7.00
1    O=C(O)CCOc1nonc1C(=NO)Nc1ccc(F)c(Cl)c1              pIC50  < 6.00
2  NS(=O)(=O)CC(=O)NCCSc1nonc1/C(=N/O)Nc1ccc(F)c(C(F)F)c1              pIC50  > 7.00
3  O=C(NCCSc1nonc1C(=NO)Nc1ccc(F)c(C(F)F)c1)C1(F)CNC1              pIC50  > 7.00

Query :: Param item = NS(=O)(=O)NCCOc1nonc1C(=NO)Nc1ccc(F)c(C(F)F)c1 ; retrieve measured pIC50.
Result :: > 7.00

Query :: Param item = NC(=O)C(=O)NCCOc1nonc1C(=NO)Nc1ccc(F)c(Cl)c1 ; retrieve measured pIC50.
Result :: 6.00 to 7.00

Query :: Param item = CN(C)S(=O)(=O)NCCOc1nonc1C(=NO)Nc1ccc(F)c(Cl)c1 ; retrieve measured pIC50.
Result :: > 7.00

----------
# target system: Indoleamine 2,3-dioxygenase (Homo sapiens, UniProt P14902)
# Construct: endogenous in cells
# experiment summary: SKOV-3 cellular Indoleamine 2,3-dioxygenase assay
# condition parameters: SKOV-3 cells, 50 ng/ml Interferon gamma, 100 μM L-Tryptophan, 24 hours, N-Formylkynurenin fluorescence detection; read-out: cell based activity
Form field: IC50 (one value per entry).

The following compounds have reported results that may help.
                                   compound  measurement_label     result
0  CC1(C(=O)NCCSc2nonc2/C(=N/O)Nc2ccc(F)c(C(F)F)c2)CCN1 (stereo not shown)               IC50   < 100 nM
1  CC(C)(O)C(O)C(=O)NCCSc1nonc1C(=NO)Nc1ccc(F)c(C(F)F)c1 (stereo not shown)               IC50   < 100 nM
2  [O-][S+](CC(F)(F)F)c1nonc1C(=NO)Nc1ccc(F)c(Br)c1 (stereo not shown)               IC50  > 1000 nM
3  O=C(NCCSc1nonc1C(=NO)Nc1ccc(F)c(Cl)c1)c1ccnc2nn[nH]c12               IC50  > 1000 nM
4  CS(=O)(=O)NCCOc1nonc1/C(=N/O)Nc1ccc(F)c(Br)c1               IC50   < 100 nM
5  NS(=O)(=O)NCCSc1nonc1/C(=N/O)Nc1ccc(F)c(Br)c1               IC50   < 100 nM

Query :: Param item = O=C(NCCOc1nonc1C(=NO)Nc1ccc(F)c(Cl)c1)c1nnc[nH]1 ; retrieve measured IC50.
Result :: 100 to 1000 nM
